Biological target: Tubulin
Test: Inhibition of tubulin polymerization (unknown origin) by fluorescence analysis
Value type: pIC50
For clarity, pIC50 is expressed as the negative log10 of concentration in mol/L.

What the record says about "COc1ccc(/C=C2\Cc3c(cc(OC)c(OC)c3OC)C2=O)cc1F" : pIC50 is 5.05

* * *

Tested on: A549
Experiment: Antiproliferative activity against human A549 cells after 48 hrs by MTT assay
Type: functional
Conditions: A549, 48 h
In plain terms, low GI50, meaning strictly below 3 µM, gives YES, and everything else gives NO.

Some solved entries appear below for comparison.
Molecule smiles	Assayed system	Assigned label
COc1ccc(/C=C2\Cc3cc(OC)c(OC)c(OC)c3C2=O)cc1N	A549	NO
COc1ccc(/C=C2\Cc3cc(OC)c(OC)c(OC)c3C2=O)cc1O	A549	NO
COc1cc2c(cc1O)C(=O)/C(=C/c1ccc(OC)c(OC)c1OC)C2	A549	NO

(Q) Does this compound meet the criterion GI50 < 3 µM? "COc1cc2c(c(OC)c1OC)C/C(=C\c1cc(OC)c(OC)c(OC)c1OC)C2=O"
(A) NO

(Q) Does this compound meet the criterion GI50 < 3 µM? "COc1cc(/C=C2\Cc3c(cc(OC)c(OC)c3OC)C2=O)cc(OC)c1OC"
(A) YES

(Q) Does this compound meet the criterion GI50 < 3 µM? "COc1cc2c(cc1O)C(=O)/C(=C/c1cc(OC)c(OC)c(OC)c1)C2"
(A) NO
